- ASSAY_PROTOCOL: Primary qHTS to identify inhibitors of SARS-CoV-2 cell entry (AID 1645846); note: nearly all actives have a fitted effect of over 45% in size
- RUN_CONDITIONS: SARS-CoV-2 pseudovirus cell entry assay, luminescence
- Excerpt: Assay Provider: Wei Zheng, Ph.D. National Center for Advancing Translational Sciences, National Institute of Health, Rockville, MD. SARS-CoV-2 spike protein, within the viral envelope, mediates viral attachment and infection of host cells. The SARS-CoV-2 spike protein specifically binds to the host receptor ACE2 (Angiotensin-converting enzyme 2). […] 11. […] Read luminescence signal (Viewlux plate reader, PerkinElmer). […]
Results filed as inconclusive are left out. The source made the active and inactive calls. Calls come from the whole dose curve.
Outcome codes: active, inactive

>  <MOLECULE>
COc1cc(-c2cn(C)c(=O)c3cnccc23)cc(OC)c1CN(C)C

>  <CATEGORY_LABEL>
inactive

$$$$
>  <MOLECULE>
Cc1cc2c(F)c(Oc3ncnn4cc(OCC(C)OC(=O)C(C)N)c(C)c34)ccc2[nH]1 (configuration not stated)

>  <CATEGORY_LABEL>
active

$$$$
>  <MOLECULE>
CC(CN(C)C)CN1c2ccccc2Sc2ccc(C(F)(F)F)cc21 (configuration not stated)

>  <CATEGORY_LABEL>
active

$$$$
>  <MOLECULE>
C/C(=C\c1csc(C)n1)[C@@H]1C[C@@H]2O[C@]2(C)CCC[C@H](C)[C@H](O)[C@@H](C)C(=O)C(C)(C)[C@@H](O)CC(=O)N1

>  <CATEGORY_LABEL>
active

$$$$
>  <MOLECULE>
O=c1c(-c2ccc(O)cc2)coc2cc(O[C@@H]3O[C@H](CO)[C@@H](O)[C@H](O)[C@H]3O)ccc12

>  <CATEGORY_LABEL>
inactive

$$$$
>  <MOLECULE>
CC1(C)CC[C@]2(C(=O)O)CC[C@]3(C)C(=CC[C@@H]4[C@@]5(C)C[C@@H](O)[C@H](O)C(C)(C)[C@@H]5CC[C@]43C)[C@@H]2C1

>  <CATEGORY_LABEL>
inactive

$$$$
>  <MOLECULE>
CN1CCN(c2ccc(C(=O)Nc3n[nH]c4ccc(Cc5cc(F)cc(F)c5)cc34)c(NC3CCOCC3)c2)CC1

>  <CATEGORY_LABEL>
active

$$$$
>  <MOLECULE>
CCN1CCN(Cc2ccc(Nc3ncc(F)c(-c4cc(F)c5nc(C)n(C(C)C)c5c4)n3)nc2)CC1

>  <CATEGORY_LABEL>
active

$$$$
>  <MOLECULE>
CCC(=O)O[C@]1(C(=O)CO)CC[C@H]2[C@@H]3CCC4=CC(=O)CC[C@]4(C)[C@H]3CC[C@@]21C

>  <CATEGORY_LABEL>
inactive

$$$$
>  <MOLECULE>
COc1cc2c(NC3CCN(C4CCCCC4)CC3)nc(N3CCCN(C(C)C)CC3)nc2cc1OCCCN1CCCCC1

>  <CATEGORY_LABEL>
active

$$$$
>  <MOLECULE>
Nc1nc(OCc2cc(Br)cs2)c2[nH]cnc2n1

>  <CATEGORY_LABEL>
inactive

$$$$
>  <MOLECULE>
CC(C)(O)/C=C\C(=O)[C@](C)(O)[C@H]1[C@H](O)C[C@]2(C)[C@@H]3CC=C4[C@@H](C=C(O)C(=O)C4(C)C)[C@]3(C)C(=O)C[C@@]12C

>  <CATEGORY_LABEL>
active

$$$$
>  <MOLECULE>
O=C(O)CC(O)CC(O)/C=C/c1c(C2CC2)nc2ccccc2c1-c1ccc(F)cc1 (configuration not stated)

>  <CATEGORY_LABEL>
inactive

$$$$
>  <MOLECULE>
C/C=C(/C)C(=O)O[C@H]1C(C)=CC23C(=O)C(C=C(CO)[C@@H](O)[C@]12O)[C@H]1[C@@H](C[C@H]3C)C1(C)C (some centres not stated)

>  <CATEGORY_LABEL>
inactive

$$$$
>  <MOLECULE>
Nc1nccc(-c2c(-c3ccc(F)cc3)ncn2C2CCCCC2)n1

>  <CATEGORY_LABEL>
inactive

$$$$
>  <MOLECULE>
COC(=O)CCC(=O)CN

>  <CATEGORY_LABEL>
inactive

$$$$
>  <MOLECULE>
CN(C)C/C=C/C(=O)Nc1cccc(C(=O)Nc2cccc(Nc3ncc(Cl)c(-c4c[nH]c5ccccc45)n3)c2)c1

>  <CATEGORY_LABEL>
active

$$$$
